Measured values drawn from PubChem BioAssay AID504660 for this set.

target: D(1A) dopamine receptor (Homo sapiens); experiment: Allosteric Agonists of the Human D1 Dopamine Receptor: qHTS; settings: HEK293 T-REx D1 cells, calcium flux, agonist mode; at 2 µM
About 3,700 (1%) of roughly 360,000 compounds were called active. No stated cut-off is given here; in the data, active means activation above about 30%; inactive means the rest. This excerpt belongs to a sample that is enriched for actives.
Outcomes: TRUE for active, FALSE for inactive

# MOLECULE, ASSIGNED CATEGORY
records = [
    ("COC(=O)c1cccc(NC(=O)CSc2nc(C)cc(=O)[nH]2)c1", "FALSE"),
    ("COc1ccc(-n2c(=O)c3sc4ccccc4c3n(CC(=O)Nc3cccc(C)c3)c2=O)cc1", "FALSE"),
    ("O=C(Nc1ccc(F)cc1F)c1cnn(-c2ccc(F)cc2)c1-n1cccc1", "FALSE"),
    ("COc1ccc(C(=O)CSc2n[nH]c(N)n2)cc1", "FALSE"),
    ("O=C1/C(=C/c2coc3ccc(O)cc3c2=O)SC(=S)N1c1ccccc1", "FALSE"),
    ("COc1ccc(NC(=O)Cn2c(=O)cc(C)c3c(C)nn(-c4cccc(Cl)c4C)c32)cc1OC", "FALSE"),
    ("C#CC(C)(CC)NC(=O)Cn1nnc(-c2ccc(OCc3c(F)cccc3Cl)cc2)n1 (stereo not drawn)", "FALSE"),
    ("O=C(O)CCCCCCCCc1cn(CN2C(=O)c3ccccc3C2=O)nn1", "FALSE"),
    ("Oc1ccc(Cl)cc1C1C=C(c2ccc3c(c2)OCO3)NC(c2c(F)cccc2Cl)N1 (stereo not drawn)", "FALSE"),
    ("Fc1ccc(-n2ncc3c(Nc4ccc(Oc5ccccc5)cc4)ncnc32)cc1", "FALSE"),
    ("COc1cc(N2CCCC2)c(OC)cc1/C=C(/C#N)c1cccc(Br)c1", "TRUE"),
    ("COc1ccc(C(=O)NC(=S)N2CCNC(=O)C2CC(=O)OC(C)C)cc1 (stereo not drawn)", "FALSE"),
    ("CCNS(=O)(=O)c1cc(-c2nnc(Nc3cccc(C(F)(F)F)c3)c3ccccc23)ccc1C", "FALSE"),
]
